Experiment: Cytotoxicity against human HDF cells assessed as cell survival at 5 to 10 uM after 24 hrs by trypan blue exclusion assay
Assay type: cell-based
Conditions: read-out: Survival
Attribute measured: viability at 24 h, up to 10 µM (%)

> print(dat)
                           substance.smiles  quantitative.result
1  COC(=O)CCCCCN1/C(=C/C=C2\CCCC(/C=C/C3=[N+](CCCCCC(=O)O)c4ccccc4C3(C)C)=C2Cl)C(C)(C)c2ccccc21.[Br-]                   85

###

Experiment: Cellular uptake in human PC3 cell cytoplasm at 20 uM after 8 hrs by fluorescence confocal microscopic analysis
Format: ADME, cell-based
Conditions: pc-3, 8 h
Attribute measured: Drug uptake

> print(dat)
                           substance.smiles      result
1  COC(=O)CCCCCN1/C(=C/C=C2\CCCC(/C=C/C3=[N+](CCCCCC(=O)O)c4ccccc4C3(C)C)=C2Cl)C(C)(C)c2ccccc21.[Br-]      Active
2  CC1(C)C(/C=C/C2=C(Cl)C(=C/C=C3\N(CCCCS(=O)(=O)[O-])c4ccccc4C3(C)C)/CCC2)=[N+](CCCCS(=O)(=O)[O-])c2ccccc21.[Na+]  Not Active
3  CC1(C)C(/C=C/C2=C(Cl)C(=C/C=C3/N(CCCCCC(=O)O)c4ccccc4C3(C)C)/CCC2)=[N+](CCCCCC(=O)O)c2ccccc21.[Br-]  Not Active
4  COC(=O)CCCCCN1/C(=C/C=C2\CCCC(/C=C/C3=[N+](CCCCCC(=O)OC)c4ccccc4C3(C)C)=C2Cl)C(C)(C)c2ccccc21.[Br-]      Active
